Data credit: patent US8541588B2

- Experimental System: Nav1.7 (or SCN9A) channel; HEK cells stably transfected with hSCN9A (Homo sapiens)
- Construct: expressed in transfected cells
- Protocol Notes: Nav1.7 block, PatchXpress 7000 automated whole-cell voltage clamp, estimated IC50 (EIC50)
- Assay type: cell-based
- Condition Set: estimated IC50; hSCN9A HEK cells, PatchXpress platform; Examples 283-814
Endpoint Label: log10 IC50 (log10 of the value in nM)
Form field - Quantity: IC50; Unit: nM; Scale: log10

Some compounds with known log10 IC50 results, for comparison:
Report log10 IC50 for N#Cc1cc(S(=O)(=O)Nc2nccs2)ccc1Oc1cnn(Cc2ccc(Cl)cc2)c1 [Example 331] please. 3.30

Report log10 IC50 for N#Cc1cc(S(=O)(=O)Nc2ncc(Br)s2)ccc1Oc1c(Br)cc(Br)cc1-c1ccccc1 [Example 512] please. 3.53

Report log10 IC50 for O=S(=O)(Nc1ncns1)c1ccc(Oc2ccc(F)cc2-c2ccn[nH]2)c(Cl)c1 [Example 478] please. 1.64

Report log10 IC50 for N#Cc1cc(S(=O)(=O)Nc2ncns2)ccc1Oc1ccc(C(F)(F)F)cc1-c1cnccn1 [Example 671] please. 2.41

Report log10 IC50 for Cn1nccc1-c1ccccc1Oc1ccc(S(=O)(=O)Nc2cscn2)cc1C#N [Example 400] please. 3.08

Report log10 IC50 for Nc1ncccc1-c1cc(Cl)ccc1Oc1cc(F)c(S(=O)(=O)Nc2ncns2)cc1Cl [Example 618] please. 1.04

Report log10 IC50 for O=S(=O)(Nc1nncs1)c1cc(Cl)c(Oc2ccc(Cl)cc2C2CCNCC2)cc1F [Example 765] please. 2.04

Report log10 IC50 for N#Cc1cc(S(=O)(=O)Nc2ncns2)ccc1Oc1ccccc1-c1cn[nH]c1 [Example 385] please. 1.83

Report log10 IC50 for CCn1nc(C2CC2)cc1-c1ccc(Oc2ccc(S(=O)(=O)Nc3nccs3)cc2C#N)cc1 [Example 369] please. 2.69

Report log10 IC50 for N#Cc1cc(S(=O)(=O)Nc2nccs2)ccc1Oc1ccc(I)cc1-c1ccn[nH]1 [Example 391] please. 0.40

Please look at the following compound next.
Report log10 IC50 for Cn1nccc1-c1cc(Cl)ccc1Oc1ccc(S(=O)(=O)Nc2ncc(Cl)s2)cc1C#N [Example 597] please. 1.30

* * *

- Experimental System: Nav1.7 (or SCN9A) channel; HEK cells stably transfected with hSCN9A (Homo sapiens, UniProt Q15858)
- Construct: expressed in transfected cells
- Sequence (Q15858 whole entry): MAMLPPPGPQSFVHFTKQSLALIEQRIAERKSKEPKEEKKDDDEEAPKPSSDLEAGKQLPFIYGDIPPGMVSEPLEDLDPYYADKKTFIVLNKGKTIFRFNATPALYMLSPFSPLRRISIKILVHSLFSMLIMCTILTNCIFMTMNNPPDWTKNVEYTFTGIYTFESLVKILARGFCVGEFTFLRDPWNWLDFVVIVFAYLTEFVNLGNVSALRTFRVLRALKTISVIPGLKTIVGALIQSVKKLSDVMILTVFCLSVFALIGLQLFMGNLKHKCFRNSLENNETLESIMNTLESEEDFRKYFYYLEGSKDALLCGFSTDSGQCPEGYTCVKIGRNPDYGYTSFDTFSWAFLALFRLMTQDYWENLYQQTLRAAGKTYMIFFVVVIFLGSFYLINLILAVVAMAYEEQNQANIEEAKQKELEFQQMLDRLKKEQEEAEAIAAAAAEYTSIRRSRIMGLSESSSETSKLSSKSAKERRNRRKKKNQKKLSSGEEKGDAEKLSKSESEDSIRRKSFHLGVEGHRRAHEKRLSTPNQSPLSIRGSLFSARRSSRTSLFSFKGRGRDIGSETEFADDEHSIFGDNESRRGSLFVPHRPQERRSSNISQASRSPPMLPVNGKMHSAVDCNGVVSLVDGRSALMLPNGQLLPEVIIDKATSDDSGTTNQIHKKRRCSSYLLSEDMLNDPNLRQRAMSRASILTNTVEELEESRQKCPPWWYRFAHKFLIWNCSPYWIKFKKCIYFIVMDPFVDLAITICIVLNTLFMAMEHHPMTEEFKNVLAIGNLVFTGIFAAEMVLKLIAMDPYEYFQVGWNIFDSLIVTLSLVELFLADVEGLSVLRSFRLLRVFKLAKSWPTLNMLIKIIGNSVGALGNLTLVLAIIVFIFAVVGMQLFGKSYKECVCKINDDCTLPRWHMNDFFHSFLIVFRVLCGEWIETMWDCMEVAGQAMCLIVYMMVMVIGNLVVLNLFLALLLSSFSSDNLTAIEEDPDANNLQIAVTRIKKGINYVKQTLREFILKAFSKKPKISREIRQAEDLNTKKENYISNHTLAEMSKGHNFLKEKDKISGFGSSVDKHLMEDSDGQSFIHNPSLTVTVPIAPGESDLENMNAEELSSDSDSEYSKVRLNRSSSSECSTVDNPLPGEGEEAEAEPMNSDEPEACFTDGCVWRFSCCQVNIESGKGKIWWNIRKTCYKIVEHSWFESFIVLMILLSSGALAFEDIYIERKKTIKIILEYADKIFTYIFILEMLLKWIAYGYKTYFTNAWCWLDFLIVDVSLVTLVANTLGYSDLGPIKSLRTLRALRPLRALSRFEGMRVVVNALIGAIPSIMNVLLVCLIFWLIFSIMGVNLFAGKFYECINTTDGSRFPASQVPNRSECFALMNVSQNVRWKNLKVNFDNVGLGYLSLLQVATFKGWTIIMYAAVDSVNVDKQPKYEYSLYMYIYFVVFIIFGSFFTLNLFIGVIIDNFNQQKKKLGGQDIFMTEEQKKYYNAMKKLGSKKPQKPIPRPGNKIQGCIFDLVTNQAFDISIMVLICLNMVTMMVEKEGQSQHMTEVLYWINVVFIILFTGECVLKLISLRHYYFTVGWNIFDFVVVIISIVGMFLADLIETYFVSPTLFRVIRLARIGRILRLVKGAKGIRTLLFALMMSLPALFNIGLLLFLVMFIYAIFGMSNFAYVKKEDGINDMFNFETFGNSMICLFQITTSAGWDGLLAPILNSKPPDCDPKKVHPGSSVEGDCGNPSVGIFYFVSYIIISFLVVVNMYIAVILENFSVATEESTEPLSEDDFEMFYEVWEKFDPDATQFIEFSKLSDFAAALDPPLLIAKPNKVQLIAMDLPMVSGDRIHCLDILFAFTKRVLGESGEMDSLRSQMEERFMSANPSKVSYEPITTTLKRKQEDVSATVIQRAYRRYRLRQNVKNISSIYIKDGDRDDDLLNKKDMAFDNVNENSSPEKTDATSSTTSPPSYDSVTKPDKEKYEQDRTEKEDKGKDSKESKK
- Protocol Notes: Nav1.7 block, PatchXpress 7000 automated whole-cell voltage clamp, estimated IC50 (EIC50)
- Assay type: cell-based
- Condition Set: estimated IC50; hSCN9A HEK cells, PatchXpress platform; Examples 283-814
Endpoint Label: IC50 (nM)
Give just the numeric value; nM need not be written.

Report IC50 for CCn1nc(C(F)(F)F)cc1-c1ccc(Oc2ccc(S(=O)(=O)Nc3ncccc3Cl)cc2C#N)cc1 please. 15000

New cases:
Report IC50 for Cn1nccc1-c1cc(F)ccc1Oc1ccc(S(=O)(=O)Nc2ncc(Cl)s2)cc1C#N please. 79

Report IC50 for Cn1nccc1-c1cc(OC(F)(F)F)ccc1Oc1ccc(S(=O)(=O)Nc2ncns2)cc1C#N please. 4.6

Report IC50 for CCn1nc(C)cc1-c1ccc(Oc2ccc(S(=O)(=O)Nc3nccs3)cc2C#N)cc1 please. 740

Report IC50 for CN1CC(n2nccc2-c2cc(F)ccc2Oc2cc(F)c(S(=O)(=O)Nc3ncns3)cc2Cl)C1 please. 5.4

Report IC50 for Nc1ccc(-c2cc(Cl)ccc2Oc2cc(F)c(S(=O)(=O)Nc3ncns3)cc2F)cn1 please. 29

Report IC50 for Cn1nccc1-c1cc(Cl)ccc1Oc1ccc(S(=O)(=O)Nc2cscn2)c(F)c1 please. 1200
